Origin of measurements: the supplement of paper PMC11061612

- Test system: SAS (Oral Cavity Carcinoma);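 also: after 72 h of two-drug dosing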
- Measurement Description: Bliss excess, mean over the matrix (fraction); higher = more synergy
Bliss excess overview

{"Compound": "CC1(C)CCC(CN2CCN(c3ccc(C(=O)NS(=O)(=O)c4ccc(NCC5CCOCC5)c([N+](=O)[O-])c4)c(Oc4cnc5[nH]ccc5c4)c3)CC2)=C(c2ccc(Cl)cc2)C1 [Venetoclax] + CCN(CCO)CCCOc1ccc2c(Nc3cc(CC(=O)Nc4cccc(F)c4)[nH]n3)ncnc2c1 [AZD2811] (first compound max 1 µM, 7x7, partner max 1 µM)", "Bliss excess": 0.009}
{"Compound": "Cn1cnc2c(F)c(Nc3ccc(Br)cc3Cl)c(C(=O)NOCCO)cc21 [Selumetinib] + CCN(CCO)CCCOc1ccc2c(Nc3cc(CC(=O)Nc4cccc(F)c4)[nH]n3)ncnc2c1 [AZD2811] (first compound max 10 µM, 7x7, partner max 1 µM)", "Bliss excess": -0.0274}
{"Compound": "C[C@@H](Oc1cc(-c2cnn(C3CCNCC3)c2)cnc1N)c1c(Cl)ccc(F)c1Cl [Crizotinib] + CC1=C(C(=CC=C1)Cl)NC(=O)C2=CN=C(S2)NC3=CC(=NC(=N3)C)N4CCN(CC4)CCO [Dasatinib] (first compound max 10 µM, 7x7, partner max 2 µM)", "Bliss excess": -0.0059}
{"Compound": "NC1(C(=O)N[C@@H](CCO)c2ccc(Cl)cc2)CCN(c2ncnc3[nH]ccc23)CC1 [Capivasertib] + CC(=O)c1c(C)c2cnc(Nc3ccc(N4CCNCC4)cn3)nc2n(C2CCCC2)c1=O [Palbociclib] (first compound max 10 µM, 7x7, partner max 10 µM)", "Bliss excess": -0.0211}
{"Compound": "CS(=O)(=O)CCNCc1ccc(-c2ccc3ncnc(Nc4ccc(OCc5cccc(F)c5)c(Cl)c4)c3c2)o1 [Lapatinib] + C[C@@H](Oc1cc(-c2cnn(C3CCNCC3)c2)cnc1N)c1c(Cl)ccc(F)c1Cl [Crizotinib] (first compound max 10 µM, 7x7, partner max 10 µM)", "Bliss excess": -0.0346}
{"Compound": "NC1(C(=O)N[C@@H](CCO)c2ccc(Cl)cc2)CCN(c2ncnc3[nH]ccc23)CC1 [Capivasertib] + CC(C)n1c(=O)n(C)c2cnc3cc(F)c(-c4ccc(OCCCN5CCCCC5)nc4)cc3c21 [AZD1390] (first compound max 10 µM, 7x7, partner max 0.3 µM)", "Bliss excess": -0.036}
{"Compound": "Cc1c2c(nn1C)CSCc1cc(n(C)n1)CSc1cc(c3ccccc3c1)OCCCc1c(C(=O)O)n(C)c3c-2c(Cl)ccc13 [AZD5991] + CN(C)CCCOc1ccc(-c2ccc3ncc4c(c3c2)n(C2CCOCC2)c(=O)n4C)cn1 [AZD0156] (first compound max 1 µM, 7x7, partner max 1 µM)", "Bliss excess": 0.0142}
